The reported measurements were obtained from paper PMC6268373.

# Assay Details: Effect of temperature on aqueous solubility
# Details: Milli-Q water, unbuffered, 21 °C, thermodynamic from solid
Result Type: solubility at 24 h (µg/mL)
Provide the reading as a plain figure in µg/mL.

Value lookup for solubility at 24 h; key = NCCCCCCCC(O)(P(=O)(O)O)P(=O)(O)O [Compound 5]
2100

====

# Assay Details: Effect of pH on aqueous solubility
# Details: 21 °C, pH 4, aqueous buffer, thermodynamic from solid
Result Type: solubility at 30 min (µg/mL)
Provide the reading as a plain figure in µg/mL.

Value lookup for solubility at 30 min; key = NCCCCCC(O)(P(=O)(O)O)P(=O)(O)O [Compound 4, reference compound]
3090

====

# Assay Details: Effect of pH on aqueous solubility
# Details: 21 °C, pH 0, aqueous buffer, thermodynamic from solid
Result Type: solubility at 30 min (µg/mL)
Provide the reading as a plain figure in µg/mL.

Value lookup for solubility at 30 min; key = NCCCCCC(O)(P(=O)(O)O)P(=O)(O)O [Compound 4, reference compound]
6340

====

# Assay Details: Effect of pH on aqueous solubility
# Details: water, pH adjusted with NaOH or HCl, 21 °C, pH 5, aqueous buffer, thermodynamic from solid
Result Type: solubility at 30 min
The reply should read as a number followed by its unit.

Compound | Observed
NCCCCCCCCCCC(O)(P(=O)(O)O)P(=O)(O)O [Compound 8] | 230 µg/mL
NCCCCCCCCCCCC(O)(P(=O)(O)O)P(=O)(O)O [Compound 9] | 200 µg/mL

Turning to the following compound.
Value lookup for solubility at 30 min; key = NCCCCCCCCC(O)(P(=O)(O)O)P(=O)(O)O [Compound 6]
1110 µg/mL

====

# Assay Details: Effect of pH on aqueous solubility
# Details: 21 °C, pH 10, aqueous buffer, thermodynamic from solid
Result Type: solubility at 30 min (µg/mL)
Provide the reading as a plain figure in µg/mL.

Value lookup for solubility at 30 min; key = NCCCCCC(O)(P(=O)(O)O)P(=O)(O)O [Compound 4, reference compound]
3180

====

# Assay Details: Protonation constants by (traditional) potentiometric titration (TPT), SUPERQUAD
# Details: aqueous 0.1 M NaNO3, log K, pKa2 (H3L− + H+ ⇋ H4L), TPT, 0.1 M NaNO3, 25 °C
Below, each entry is listed with its recorded pKa.
The response must contain the number and no unit.

Answered examples (2):
Smiles Structure | Observed
NCCCCCCCC(O)(P(=O)(O)O)P(=O)(O)O | 2.52
NCCC(O)(P(=O)(O)O)P(=O)(O)O | 1.7

Turning to the following molecule.
Value lookup for pKa; key = "NCCCCC(O)(P(=O)(O)O)P(=O)(O)O"
2.3

====

Below, each entry is listed with its recorded pKa.
# Assay Details: Protonation constants by (traditional) potentiometric titration (TPT), SUPERQUAD
# Details: aqueous 0.1 M NaNO3, log K, pKa3 (H2L2− + H+ ⇋ H3L−), TPT, 0.1 M NaNO3, 25 °C
The response must contain the number and no unit.

Answered examples (2):
Compound | Result Type | Observed
NCCCCCCCC(O)(P(=O)(O)O)P(=O)(O)O [Compound 5] | pKa | 6.75
NCCCCC(O)(P(=O)(O)O)P(=O)(O)O [Compound 3] | pKa | 6.44

Turning to the following compound.
Value lookup for pKa; key = NCCC(O)(P(=O)(O)O)P(=O)(O)O [Compound 1]
5.9
